Assay: Intrinsic clearance in human liver microsomes assessed per mg protein measured after 60 mins in presence of NADPH generating system by LC-MS analysis
Format: ADME, Microsome
Conditions: read-out: CLH
Exercise: for every item that follows, state its recorded microsomal CLint.
Note: state the figure and append the unit.

What does the record list as microsomal CLint for O=C(NCCc1csc(-c2ccc(F)cc2F)n1)c1cc(F)ccc1F ?
231 µL/min/mg

Further, for O=C(NCCc1csc(-c2ccc(F)cc2F)n1)N1CCCCC1 ?
225 µL/min/mg

Next entry: O=C(NCCc1csc(-c2ccc(F)cc2)n1)N1CCCCC1
160 µL/min/mg

Do the same for O=C(NCCc1csc(-c2ccccc2F)n1)N1CCCCC1 please
439 µL/min/mg
